Test system: HS 578T breast
procedureText: NCI tumour cell line growth inhibition, 48 h; in the data active means GI50 below about 0.43 µM; inactive means the rest
Output constraint: value belongs to active, inactive

Challenge: # lookup: test call for Cc1cc(C)n(C(=O)c2nn(-c3ccc(Cl)cc3)cc2O)n1
Response given: inactive

Challenge: C#Cc1cccc(Oc2ccc(NC(=O)CCl)cc2)c1 ?
Response given: inactive

Challenge: COc1ccc(/C=C/C(=O)c2cc3c(N)c(C(=O)Nc4ccccc4C)sc3nc2C)cc1 ?
Response given: active

Challenge: COc1cc(NCc2ccccc2O)c2ncccc2c1 ?
Response given: inactive

Challenge: CO[C@@]12C[C@H]3[C@@H]([C@@H](O)[C@@H](OC(=O)/C=C/c4ccccc4)[C@@]4(O)C(C)(C)CCC[C@]34C)[C@@H](C)C1=CC(=O)O2 ?
Response given: inactive

Challenge: COc1cc(C2=NN(c3ccc(S(N)(=O)=O)cc3)C(c3ccc(Cl)cc3)C2)cc(OC)c1OC (configuration not stated) ?
Response given: inactive

Challenge: CCCN1C(=O)CSC1=Nc1ccc2cc3ccc(N=C4SCC(=O)N4CCC)cc3nc2c1 ?
Response given: inactive

Challenge: C1=C(c2ccccc2)C(c2ccc(OCCN3CCCCC3)cc2)Oc2ccccc21 (configuration not stated) ?
Response given: inactive

Challenge: Cc1cccc2c1O/C(=C\c1ccc([N+](=O)[O-])o1)C2=O ?
Response given: inactive

Challenge: C[C@]12C3CC[C@@]4(CO)C[C@]3(CCC1[C@](C)(C(=O)O)CC[C@@H]2O)CC4=O (some centres not stated) ?
Response given: inactive

Challenge: Cc1ccc2c(c1)O/C(=C\c1ccc([N+](=O)[O-])o1)C2=O ?
Response given: inactive

Challenge: CC(=O)c1cc2c(c3ccsc13)-c1ccccc1CC2 ?
Response given: inactive

Challenge: CNC(=O)OC1C(O[C@H]2C[C@H]3[C@@H]4CC=C5C[C@@H](O)CC[C@]5(C)[C@H]4CC[C@]3(C)[C@H]2[C@H](C)C(=O)CCC(C)C)OCC(O)C1OC1OCC(O)C(O)C1OC(=O)c1ccc(OC)cc1 (some centres not stated) ?
Response given: active

Challenge: CN1CCN(CCNc2ccc(CO)c3sc4ccccc4c(=O)c23)CC1 ?
Response given: inactive

* * *

Test system: SK-MEL-28 melanoma
procedureText: NCI tumour cell line growth inhibition, 48 h
testReadout: log10 of TGI (log10 of the value in µM)
In our notation, the value equals log10 of TGI in µM.

// below: answered compounds
• CCCCCOC(=O)c1cc2cc(CCl)ccc2oc1=O = 1.78
• CCCCCC(O)(CCCCC)CCCCCCCCC1=C(O)c2[nH]c(=O)ccc2C(=O)C1=O = 1.32
• CC(O)C(O)C(O)C(/C=N\Nc1ccccc1)=N/Nc1ccccc1 (stereo not given) = 1.48
• CN(C)CC1(Cc2ccccc2)CCC(Cc2ccccc2)C1=O (stereo not given) = 1.42

Shifting focus to the compound that follows.
Challenge: Requested read-out: log10 of TGI. Entry: Cc1nc2cc(Nc3nc(Nc4ccc(F)cc4)nc(N4CCN(C)CC4)n3)ccc2n1Cc1ccccc1
Response given: 0.50

* * *

Entries and their TGI values follow.
Tested on: SNB-75 CNS
procedureText: NCI tumour cell line growth inhibition, 48 h

// below: answered compounds
* COC(=O)C1N=CSCC1(C)O (stereo not given) | > 100 µM
* COc1ccc(N2C(=O)[C@@H]3[C@H](C2=O)c2[nH]c4ccccc4c2C2CCC(C(C)(C)C)C[C@@H]23)cc1 (stereo not given in full) | 38 µM
* C#C[C@H](CCCC)OC(=O)N[C@H](C)c1ccccc1 | > 100 µM
* Cc1nc2ncn3c(c-2c1Cc1ccccc1)NC=C(O)N3 | 67.8 µM
* COC(=O)c1ccccc1C1CN=NC12Cc1cc(C)c(C)cc1C2=O (stereo not given) | > 100 µM
* CCN(CC)Cc1cc(Nc2c3ccccc3nc3c4ccccc4n(C)c23)ccc1O | 27.3 µM

Challenge: Enter reported TGI observed with SNB-75 CNS for O[C@H]1[C@H]2[C@H](O)C[C@H](CCOCc3ccccc3)CN2C[C@H]1O
Response given: > 100 µM

Challenge: CCSC1=N/C(=C/c2ccccc2O)C(=O)N1 ?
Response given: 72.1 µM

Challenge: COC(=O)C1=C(O)CCCC(CCC(C)=O)=C1 ?
Response given: > 100 µM

Challenge: CC(=O)OC1CC[C@@]2(C)C(C1)CC(OC(C)=O)[C@@H]1C2CC(OC(C)=O)[C@]2(C)C(C(C)CC=C(c3ccc(Cl)cc3)c3ccc(Cl)cc3)CCC12 (stereo not given in full) ?
Response given: > 100 µM

* * *

System: RPMI-8226 leukemia
procedureText: NCI tumour cell line growth inhibition, 48 h; in the data active = GI50 below about 0.43 µM; inactive = the rest
Output constraint: value belongs to active, inactive

Example results:
* Cc1ccc2c(c1)O/C(=C\c1ccc([N+](=O)[O-])o1)C2=O | inactive
* CC(=O)[C-](C(C)=O)c1ccccc1.CC(=O)[C-](C(C)=O)c1ccccc1.CC[O-].CC[O-].[Ti+4] | inactive
* CCOC(=O)N[C@H]1CCc2c(Br)c(OC)c(OC)c(OC)c2-c2ccc(SC)c(=O)cc21 | active
* NC(=S)N/N=C\c1nccc2c(N)cccc12 | active
* CCCN1C(=O)CSC1=Nc1ccc2cc3ccc(N=C4SCC(=O)N4CCC)cc3nc2c1 | inactive
* COc1cc(NCc2ccccc2O)c2ncccc2c1 | inactive

Challenge: # lookup: test call for Cc1ccc(C2C3=C(N=c4s/c(=C/c5ccc(Br)cc5)c(=O)n42)c2ccc4ccccc4c2OCC3)cc1 (centres undefined)
Response given: inactive

Challenge: C[C@]12C3CC[C@@]4(CO)C[C@]3(CCC1[C@](C)(C(=O)O)CC[C@@H]2O)CC4=O (some centres undefined) ?
Response given: inactive

Challenge: COc1cc(/C=C2\CN(S(=O)(=O)c3ccccc3)C/C(=C\c3cc(CN4CCCCC4)c(O)c(OC)c3)C2=O)cc(CN2CCCCC2)c1O ?
Response given: inactive

* * *

Test system: SK-OV-3 ovarian
procedureText: NCI tumour cell line growth inhibition, 48 h
testReadout: TGI (µM)
# value in µM; strip the unit string

// below: answered molecules
* O=[N+]([O-])c1ccc2c(c1)nc(Cc1ccc(Cl)cc1)n2C[C@@H]1CCCN2CCCCC12 (some centres not stated) | 43.5
* COc1cc(-c2cc(/C=C3\C(=O)Nc4ccccc43)[nH]n2)cc(OC)c1OC | 26.7
* CC1(C)CCC[C@]2(C)[C@@H]1CC[C@@]13O[C@@H]1C1=C(CO)C(=O)OC1=C[C@@H]23 | 46.5
* C#C[C@]1(O)CC[C@H]2[C@@H]3CCC4=C/C(=N\OCCN(CC)CC)CC[C@]4(C)[C@H]3CC[C@@]21C | 34.4

Shifting focus to the molecule that follows.
Challenge: Requested read-out: TGI. Entry: C[S+](C)CC(=O)c1ccc2c(c1)Sc1ccccc1O2
Response given: 19.6

* * *

Test system: EKVX NSCLC
procedureText: NCI tumour cell line growth inhibition, 48 h
testReadout: GI50

Challenge: Requested read-out: GI50. Entry: Nc1ccc2ccc(NS(=O)(=O)N3CCCCC3)cc2c1
Response given: 2050 nM

Challenge: NC(=S)N/N=C\c1nccc2c(N)cccc12 ?
Response given: 803 nM

Challenge: CO[C@@]12C[C@H]3[C@@H]([C@@H](O)[C@@H](OC(=O)/C=C/c4ccccc4)[C@@]4(O)C(C)(C)CCC[C@]34C)[C@@H](C)C1=CC(=O)O2 ?
Response given: 5360 nM

Challenge: Cc1ccc(C2C3=C(N=c4s/c(=C/c5ccc(Br)cc5)c(=O)n42)c2ccc4ccccc4c2OCC3)cc1 (stereo unspecified) ?
Response given: > 100000 nM

Challenge: COc1ccc2c(c1)cn1c3ccc(O)cc3[nH]c(=O)c21 ?
Response given: 797 nM

Challenge: O=C(Nc1ccc(Cl)cc1)c1cc(S(=O)(=O)Nc2nnc(-c3ccccc3)c(-c3ccccc3)n2)c(SCc2ccccc2)cc1Cl ?
Response given: 32100 nM

* * *

Tested on: PC-3 prostate
procedureText: NCI tumour cell line growth inhibition, 48 h
testReadout: TGI

* O=C1CCCCCC1CC(Sc1ccccc1)Sc1ccccc1 (stereo not given) | > 100 µM
* CC(C)(C)OC(=O)CN1CCc2c(sc3ncnc(N/N=C/c4cccc5ccccc45)c23)C1 | > 33.3 µM

Challenge: Requested read-out: TGI. Entry: CC1(C)CCC[C@]2(C)[C@@H]1CC[C@@]13O[C@@H]1C1=C(CO)C(=O)OC1=C[C@@H]23
Response given: 57.4 µM

Challenge: Cc1cc(=O)oc2c3c(ccc12)OC(c1ccc(Br)cc1)CC3=O (stereo not given) ?
Response given: 47.9 µM

Challenge: Cn1c2ccccc2c2nc3ccccc3c(Cl)c21 ?
Response given: > 100 µM

* * *

Test system: T-47D breast
procedureText: NCI tumour cell line growth inhibition, 48 h
testReadout: TGI (µM)
# value in µM; strip the unit string

• O=[N+]([O-])/C=C\c1c[nH]c2ccc(OCc3ccccc3)cc12 = 12.4
• COC1C(O)C(C)OC(OC2CC3CCC4C(CCC5(C)C(C6=CC(=O)OC6)CCC45O)C3(O)C(OC(C)=O)C2)C1O (configuration not stated) = 12.7
• C=C1CC2(CCCC3(CC(=C)C(=O)O3)C2(C)C)OC1=O (configuration not stated) = 21.3
• O=C(CNc1ncco1)Nc1ccc(S(=O)(=O)c2ccc(NC(=O)CNc3ncco3)cc2)cc1 = 4.38
• NC(=S)N1N=C(c2ccccc2O)CC1c1ccccc1 (configuration not stated) = 68.5

Shifting focus to the molecule that follows.
Challenge: Requested read-out: TGI. Entry: CC(/C=N\NC(=S)N(C)C)=N/NC(=S)N(C)C
Response given: 2.78
